Biological target: HLA-B*07:02
Assay: IEDB peptide-MHC binding, purified MHC/competitive/radioactivity; filed as Kd, often an IC50 or EC50 that approximates it; bounds were set here for any values at or beyond the usual limits of such assays
Conditions: source organism: Dengue virus 4 Philippines/H241/1956
Quick list: Kd per entry.
# unit: nM | format: bare number

Sample QPKPGTRMVM ; Kd observed: 8.33

Lookup result for NPRLCTREE ; measured Kd: 213

More entries:
Value of Kd reported for the sequence IPYLGKREDL is 50.3

---

Biological target: HLA-A*03:01
Assay: IEDB peptide-MHC binding, purified MHC/direct/fluorescence; filed as Kd, often an IC50 or EC50 that approximates it; bounds were set here for any values at or beyond the usual limits of such assays
Details: source organism: Yersinia enterocolitica subsp. enterocolitica 8081
pKd: −log10 of the molar value.
REPORTED METRIC: pKd

Considering LAYLAGWII , its pKd with HLA-A*03:01 was recorded as ≤ 4.70
